target: wildtype human α-synuclein (human, UniProt P37840 1-140); assay: SPR (Biacore), antibody captured on anti-human IgG chip, alpha synuclein flowed over, 1:1 model, global fit
reported.endpoint: pKd
Kindly note that pKd refers to -log10 of the concentration in mol/L and answer with the value alone.

Worked examples follow.
Retrieve pKd measured for chimeric 5C1 antibody (antibody, V domains shown, also called Ch5C1) VH: QVQLQQSGAELAKPGTSVQMSCKASGYTFTNYWMNWIKARPGQGLEWIGATNPNNGYTDYNQRFKDKAILTADKSSNTAYMHLSSLTSEDSAVYFCASGGHLAYWGQGTVVTVSA VL: DVVMTQIPLYLSVSPGDQASISCRSSQSLFHSKGNTYLHWYLQKPGQSPKLLINRVSNRFSGVPDRFSGSGSGTDFTLKISGVEAEDLGVYFCSQSAHVPWTFGGGTKLEIR and print it.
7.07

Retrieve pKd measured for humanized 5C1 H3L4 (antibody, V domains shown, It was captured on an anti-human IgG chip, so it carries a human constant region, which is not specified; also called h5C1_H3L4) VH: QVQLVQSGAELKKPGSSVKVSCKASGYTFTNYWMNWVRQAPGQGLEWIGATNPNNGYTDYNQRFKDRATLTADKSTNTAYMELSSLRSEDTAVYFCASGGHLAYWGQGTLVTVSS VL: DIVMTQSPLSLSVSPGEPASISCRSSQSLFHSKGNTYLHWYLQKPGQSPQLLIYRVSNRFSGVPDRFSGSGSGTDFTLKISRVEAEDVGVYFCSQSAHVPWTFGGGTKVEIK and print it.
5.91

Others:
Retrieve pKd measured for humanized 5C1 H5L3 (antibody, V domains shown, The human constant region is not specified; also called h5C1_H5L3) VH: QVQLVQSGAELKKPGSSVKVSCKASGYTFTNYWMNWVRQAPGQGLEWIGATNPNNGYTDYNQRFKDRVTITADKSTNTAYMELSSLRSEDTAVYYCASGGHLAYWGQGTLVTVSS VL: DVVMTQSPLSLSVSPGEPASISCRSSQSLFHSKGNTYLHWYLQKPGQSPQLLINRVSNRFSGVPDRFSGSGSGTDFTLKISRVEAEDVGVYFCSQSAHVPWTFGGGTKVEIK and print it.
6.55

Retrieve pKd measured for humanized 5C1 H4L3 (antibody, V domains shown, The human constant region is not specified; also called h5C1_H4L3) VH: QVQLVQSGAELKKPGSSVKVSCKASGYTFTNYWMNWVRQAPGQGLEWIGATNPNNGYTDYNQRFKDRATLTADKSTNTAYMELSSLRSEDTAVYYCASGGHLAYWGQGTLVTVSS VL: DVVMTQSPLSLSVSPGEPASISCRSSQSLFHSKGNTYLHWYLQKPGQSPQLLINRVSNRFSGVPDRFSGSGSGTDFTLKISRVEAEDVGVYFCSQSAHVPWTFGGGTKVEIK and print it.
6.92

Retrieve pKd measured for humanized 5C1 H4L4 (antibody, V domains shown, The human constant region is not specified; also called h5C1_H4L4) VH: QVQLVQSGAELKKPGSSVKVSCKASGYTFTNYWMNWVRQAPGQGLEWIGATNPNNGYTDYNQRFKDRATLTADKSTNTAYMELSSLRSEDTAVYYCASGGHLAYWGQGTLVTVSS VL: DIVMTQSPLSLSVSPGEPASISCRSSQSLFHSKGNTYLHWYLQKPGQSPQLLIYRVSNRFSGVPDRFSGSGSGTDFTLKISRVEAEDVGVYFCSQSAHVPWTFGGGTKVEIK and print it.
6.22

Every entry's value here was drawn from patent US20190315843A1.
